// provenance: patent EP0745595A1

Known AMBEL of a selection of compounds
Test system: AMBROSIA ARTEMISIIFOLIA, L.
protocol_notes: Postemergence herbicidal evaluation, AMBEL (Ragweed, Common);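 also: higher means more injury with 8 approaching complete kill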
Assay type: in vivo
run_parameters: Rate 0.125 kg/ha
Kindly provide the number alone.

Please review the following examples before continuing.
Fill: AMBEL (AMBROSIA ARTEMISIIFOLIA, L.) for this compound Cn1c(=O)[nH]c(=O)n(-c2cccc(Oc3ccc(C(F)(F)F)cc3Cl)c2)c1=O [E, reference compound] 2.0

Answer with AMBEL of Cn1c(=O)[nH]c(=O)n(-c2cc(Oc3c(F)cc(C(F)(F)F)cc3Cl)ccc2[N+](=O)[O-])c1=O [D, reference compound] measured for AMBROSIA ARTEMISIIFOLIA, L.. 8.5

For AMBROSIA ARTEMISIIFOLIA, L., give the measured AMBEL of the entry COC(=O)Cn1c(=O)n(C)c(=O)n(-c2cc(Oc3ccc(C(F)(F)F)cc3Cl)ccc2Cl)c1=O 8.5

More entries:
Please indicate recorded AMBEL of Cn1c(=O)[nH]c(=O)n(-c2cc(Oc3ccc(C(F)(F)F)cc3Cl)ccc2Cl)c1=O [F, reference compound] measured with AMBROSIA ARTEMISIIFOLIA, L.. 6.0

Quote AMBROSIA ARTEMISIIFOLIA, L. AMBEL for entry COC(=O)Cn1c(=O)n(C)c(=O)n(-c2cc(Oc3c(F)cc(C(F)(F)F)cc3Cl)ccc2[N+](=O)[O-])c1=O . 9.0

----------
System: ORYZA SATIVA, L. TEBONNET
protocol_notes: Rice tolerance to post-transplant applications under flooded paddy conditions, ORYSAT (Rice, Tebonnet)
Format: in vivo
run_parameters: 0.063 kg/ha, post-transplant rice, 3-4 weeks after treatment
property_label: Herbicidal effect rating, ORYSAT
// response body must contain only the number

Known results for compounds:
Supply Herbicidal effect rating, ORYSAT value. Item: COC(=O)Cn1c(=O)n(C)c(=O)n(-c2cc(Oc3ccc(F)c(F)c3F)ccc2[N+](=O)[O-])c1=O 0.0

Write down Herbicidal effect rating, ORYSAT measured for item COC(=O)Cn1c(=O)n(C)c(=O)n(-c2cc(Oc3c(Cl)cccc3Cl)ccc2[N+](=O)[O-])c1=O 0.0

Fill in Herbicidal effect rating, ORYSAT for record COC(=O)Cn1c(=O)n(C)c(=O)n(-c2cc(Oc3ccc(Cl)c(C)c3Cl)ccc2[N+](=O)[O-])c1=O 2.0

Next:
State its Herbicidal effect rating, ORYSAT for this compound: COC(=O)Cn1c(=O)n(C)c(=O)n(-c2cc(Oc3cc(Cl)c(Cl)cc3Cl)ccc2[N+](=O)[O-])c1=O 0.0

----------
System: IPOMOEA SPP.
protocol_notes: Postemergence herbicidal evaluation, IPOSS (Morningglory spp.)
Type: in vivo
run_parameters: Rate 0.500 kg/ha, rated four to five weeks after treatment, averaged
Measured IPOSS, herbicide rating (0-9), listed per entry.
Would you mind answering with just the numeric figure?

Give the observed IPOSS, herbicide rating (0-9) of CCOC(=O)Cn1c(=O)n(C)c(=O)n(-c2cc(Oc3ccc(C(F)(F)F)cc3Cl)ccc2[N+](=O)[O-])c1=O [Compound 9] for IPOMOEA SPP.. 9.0

Fill in IPOSS, herbicide rating (0-9) for CCOC(=O)Cn1c(=O)[nH]c(=O)n(-c2cc(Oc3ccc(C(F)(F)F)cc3Cl)ccc2[N+](=O)[O-])c1=O [Compound 5] tested with IPOMOEA SPP.. 9.0

Alright, here's another molecule for you.
// fetch IPOSS, herbicide rating (0-9); item: COC(=O)Cn1c(=O)n(C)c(=O)n(-c2cc(Oc3c(F)cc(C(F)(F)F)cc3Cl)ccc2F)c1=O [Compound 4] ; system: IPOMOEA SPP. 9.0

----------
Tested on: ORYZA SATIVA, L. TEBONNET
protocol_notes: Rice tolerance to post-transplant applications under flooded paddy conditions, ORYSAT (Rice, Tebonnet);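 as to ORYSAT herbicidal rating (rice tolerance): applied to flooded soil surface three days after transplanting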
Format: in vivo
run_parameters: post-transplant rice, Rate 0.063 kg/ha, rated three to four weeks after treatment
The reader will find reported ORYSAT herbicidal rating (rice tolerance) values listed item by item below.
Give the figure by itself; no unit, no explanation.

Sample answers from the record:
Please report ORYSAT herbicidal rating (rice tolerance) for the following compound: CCOC(=O)Cn1c(=O)[nH]c(=O)n(-c2cc(Oc3c(F)cc(C(F)(F)F)cc3Cl)ccc2C#N)c1=O 0.0

Look up and state reported ORYSAT herbicidal rating (rice tolerance) for CCOC(=O)Cn1c(=O)n(C)c(=O)n(-c2cc(Oc3ccc(C(F)(F)F)cc3Cl)ccc2[N+](=O)[O-])c1=O 3.3

Using known records, supply ORYSAT herbicidal rating (rice tolerance) for CCOC(=O)Cn1c(=O)n(C)c(=O)n(-c2cc(Oc3c(F)cc(C(F)(F)F)cc3Cl)ccc2C#N)c1=O 0.0

Continuing:
Supply ORYSAT herbicidal rating (rice tolerance) value. Item: COC(=O)Cn1c(=O)[nH]c(=O)n(-c2cc(Oc3ccc(C(F)(F)F)cc3Cl)ccc2[N+](=O)[O-])c1=O 0.0

Identify measured ORYSAT herbicidal rating (rice tolerance) corresponding to COC(=O)Cn1c(=O)n(C)c(=O)n(-c2cc(Oc3ccc(C(F)(F)F)cc3Cl)ccc2[N+](=O)[O-])c1=O 2.7

For the compound COC(=O)Cn1c(=O)n(C)c(=O)n(-c2cc(Oc3c(F)cc(C(F)(F)F)cc3Cl)ccc2F)c1=O , give its reported ORYSAT herbicidal rating (rice tolerance). 2.0

# return recorded ORYSAT herbicidal rating (rice tolerance) for input COC(=O)Cn1c(=O)n(C)c(=O)n(-c2cc(Oc3c(F)cc(C(F)(F)F)cc3Cl)ccc2Br)c1=O 2.5

Return ORYSAT herbicidal rating (rice tolerance) (reported value) for this compound: CCOC(=O)Cn1c(=O)n(CC(=O)OC)c(=O)n(-c2cc(Oc3c(F)cc(C(F)(F)F)cc3Cl)ccc2C#N)c1=O 0.0

Check the records and state ORYSAT herbicidal rating (rice tolerance) for CCOC(=O)Cn1c(=O)[nH]c(=O)n(-c2cc(Oc3ccc(C(F)(F)F)cc3Cl)ccc2[N+](=O)[O-])c1=O 3.0

----------
Tested on: ORYZA SATIVA, L. TEBONNET
protocol_notes: Rice tolerance to post-transplant applications under flooded paddy conditions, ORYSAT (Rice, Tebonnet)
Assay type: in vivo
run_parameters: 0.125 kg/ha, post-transplant rice, 3-4 weeks after treatment
property_label: Herbicidal effect rating, ORYSAT
Response field accepts a number only; no unit should be typed.

Here is how some molecules turned out for Herbicidal effect rating, ORYSAT.
Consider the molecule COC(=O)Cn1c(=O)n(C)c(=O)n(-c2cc(Oc3ccc(Cl)cc3F)ccc2[N+](=O)[O-])c1=O . State its measured Herbicidal effect rating, ORYSAT. 2.0

For Cn1c(=O)n(CC(=O)OC(C)(C)C)c(=O)n(-c2cc(Oc3ccc(C(F)(F)F)cc3Cl)ccc2Cl)c1=O , write its Herbicidal effect rating, ORYSAT. 0.5

Given the molecule COC(=O)Cn1c(=O)n(C)c(=O)n(-c2cc(Oc3c(Cl)cc(Cl)cc3Cl)ccc2[N+](=O)[O-])c1=O , write its reported Herbicidal effect rating, ORYSAT. 3.0

Respond only with Herbicidal effect rating, ORYSAT recorded for COC(=O)Cn1c(=O)[nH]c(=O)n(-c2cc(Oc3ccc(Cl)cc3Cl)ccc2[N+](=O)[O-])c1=O 0.0

Specify Herbicidal effect rating, ORYSAT for CC(C)OC(=O)Cn1c(=O)n(C)c(=O)n(-c2cc(Oc3ncc(C(F)(F)F)cc3Cl)ccc2Br)c1=O and stop. 1.0

State, in one line, measured Herbicidal effect rating, ORYSAT of COC(=O)Cn1c(=O)n(C)c(=O)n(-c2cc(Oc3ccc(C(F)(F)F)cc3Cl)ccc2Cl)c1=O 3.5

Return Herbicidal effect rating, ORYSAT for the following molecule: COC(=O)Cn1c(=O)n(C)c(=O)n(-c2cc(Oc3ccc(F)c(F)c3F)ccc2[N+](=O)[O-])c1=O 1.0

State its Herbicidal effect rating, ORYSAT: COC(=O)Cn1c(=O)n(C)c(=O)n(-c2cc(Oc3ccc(Cl)c(Cl)c3Cl)ccc2[N+](=O)[O-])c1=O 2.0

---
Retrieve Herbicidal effect rating, ORYSAT measured for COC(=O)Cn1c(=O)n(C)c(=O)n(-c2cc(Oc3c(F)cc(C(F)(F)F)cc3Cl)ccc2[N+](=O)[O-])c1=O and print it. 5.0

Write down Herbicidal effect rating, ORYSAT measured for item COC(=O)Cn1c(=O)n(C)c(=O)n(-c2cc(Oc3ccc([S+](C)[O-])cc3Cl)ccc2[N+](=O)[O-])c1=O (stereo not shown) 0.0

----------
Test system: GALIUM APARINE
protocol_notes: Preemergence herbicidal evaluation, GALAP (Galium)
Format: in vivo
run_parameters: Rate 0.125 kg/ha, four to five weeks after treatment
property_label: GALAP rating
In your answer, state the number alone without any accompanying words.

Identify GALAP rating associated with the compound CCOC(=O)Cn1c(=O)[nH]c(=O)n(-c2cc(Oc3ccc(C(F)(F)F)cc3Cl)ccc2[N+](=O)[O-])c1=O 9.0

Please supply the value of reported GALAP rating for the item COC(=O)Cn1c(=O)n(C)c(=O)n(-c2cc(Oc3ccc(C(F)(F)F)cc3Cl)ccc2[N+](=O)[O-])c1=O 7.3

Answer with reported GALAP rating of C#CCn1c(=O)n(CC(=O)OCC)c(=O)n(-c2cc(Oc3ccc(C(F)(F)F)cc3Cl)ccc2[N+](=O)[O-])c1=O 4.0

Please indicate GALAP rating recorded for COC(=O)Cn1c(=O)n(C)c(=O)n(-c2cc(Oc3c(F)cc(C(F)(F)F)cc3Cl)ccc2Br)c1=O 9.0

Supply recorded GALAP rating for COC(=O)Cn1c(=O)n(C)c(=O)n(-c2cc(Oc3c(F)cc(C(F)(F)F)cc3Cl)ccc2F)c1=O here. 7.3

Continuing:
Give the measured GALAP rating for CCOC(=O)Cn1c(=O)n(CC(=O)OC)c(=O)n(-c2cc(Oc3ccc(C(F)(F)F)cc3Cl)ccc2[N+](=O)[O-])c1=O 9.0
